Just for reference, ChEMBL document CHEMBL1129882 is where these values come from.

Organism: Homo sapiens
Assay: Tested in vitro for the inhibition of ADP-induced aggregation of human blood platelets
Type: functional
pIC50: −log10 of the molar value.
Measurement Kind: pIC50

Example results:
Request: Item "COc1ccc(CCS(=O)(=O)N[C@H](CCCCNC(=O)c2ccc(C(=N)N)cc2)CC(=O)O)cc1" has what recorded pIC50?
Response: 7.10

Request: Now consider "N=C(N)c1ccc(CC(=O)NCCC[C@@H](CC(=O)O)NC(=O)CC23C[C@H]4C[C@@H](C2)C[C@@H](C3)C4)cc1" and answer again.
Response: 7.17

A = CC(C)CC(=O)N[C@@H](CCCNC(=O)Cc1ccc(C(=N)N)cc1)CC(=O)O
B = N=C(N)c1ccc(CC(=O)NCCC[C@@H](CC(=O)O)NC(=O)CCC23C[C@H]4C[C@@H](C2)C[C@@H](C3)C4)cc1
Request: When their pIC50 values are compared, which is larger, A or B ? Let me know the label of the one you choose.
Response: B
